- Measured target: human TLR7 (Homo sapiens, UniProt Q9NYK1)
- Construct: host or cells: HEK-Blue cells
- Sequence (Q9NYK1 27-1049): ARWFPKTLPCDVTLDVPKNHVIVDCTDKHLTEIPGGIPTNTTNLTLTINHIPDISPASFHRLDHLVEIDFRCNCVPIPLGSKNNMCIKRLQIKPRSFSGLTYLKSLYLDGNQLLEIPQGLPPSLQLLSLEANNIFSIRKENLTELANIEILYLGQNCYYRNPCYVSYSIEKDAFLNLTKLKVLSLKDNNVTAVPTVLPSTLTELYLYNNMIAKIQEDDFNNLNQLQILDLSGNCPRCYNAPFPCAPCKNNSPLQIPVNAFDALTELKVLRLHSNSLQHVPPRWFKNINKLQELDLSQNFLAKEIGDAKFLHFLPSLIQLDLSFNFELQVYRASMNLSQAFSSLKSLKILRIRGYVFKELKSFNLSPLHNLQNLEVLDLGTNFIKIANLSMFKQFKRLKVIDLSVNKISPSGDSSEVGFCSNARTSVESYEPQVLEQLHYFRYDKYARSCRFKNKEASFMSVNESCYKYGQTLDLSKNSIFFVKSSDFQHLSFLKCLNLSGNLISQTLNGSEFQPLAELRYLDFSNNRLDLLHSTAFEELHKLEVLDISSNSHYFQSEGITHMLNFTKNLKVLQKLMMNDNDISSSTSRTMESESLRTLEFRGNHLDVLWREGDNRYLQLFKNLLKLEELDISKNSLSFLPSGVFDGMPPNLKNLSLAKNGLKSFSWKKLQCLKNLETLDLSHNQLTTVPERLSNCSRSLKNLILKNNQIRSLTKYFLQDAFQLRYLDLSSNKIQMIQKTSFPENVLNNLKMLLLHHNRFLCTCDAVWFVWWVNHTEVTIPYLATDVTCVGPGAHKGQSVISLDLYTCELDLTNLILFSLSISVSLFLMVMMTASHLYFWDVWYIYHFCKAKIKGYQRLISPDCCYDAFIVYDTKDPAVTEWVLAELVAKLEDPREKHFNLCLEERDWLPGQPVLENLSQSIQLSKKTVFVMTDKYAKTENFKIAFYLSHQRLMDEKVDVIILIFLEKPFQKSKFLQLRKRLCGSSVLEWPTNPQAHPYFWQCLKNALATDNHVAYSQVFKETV
- Protocol details: TLR7 inhibition reporter assay (HEK-Blue SEAP reporter, gardiquimod stimulation)
- Assay type: cell-based
- Test conditions: HEK-Blue cells overexpressing human TLR7, SEAP reporter, gardiquimod 7.5 μM, 22 hour incubation
Endpoint name: IC50 (nM)

Observe how each entry below is paired with its result.
- Compound: "COC(=O)c1cc(-c2[nH]c3ccc(C4CCNCC4)cc3c2C(C)C)cn(C)c1=O [Example 37]"
  Meas value: 458
- Compound: "CCCN1CCC(c2ccc3[nH]c(-c4cc(COC)c(=O)n(C)c4)c(C(C)C)c3c2)CC1 [Example 348]"
  Meas value: 7.1
- Compound: "CCn1cc(-c2[nH]c3ccc(C4CCN(CC(=O)NC)CC4)cc3c2C(C)C)cc(C)c1=O [Example 132]"
  Meas value: 9

(P) Cc1c(-c2[nH]c3ccc(C4CCNCC4)cc3c2C(C)C)cn(C)c(=O)c1C [Example 14]
(Q) CCNC(=O)CN1CCC(c2ccc3[nH]c(-c4cn(C)c(=O)c(Cl)c4C)c(C(C)C)c3c2)CC1 [Example 155]
Lower IC50: P or Q ? Response format: the label of the selected entry.
P
(P: 3.5 nM, Q: 5.3 nM)

(I) Cc1c(-c2[nH]c3ccc(C4CCN(CC#N)CC4)cc3c2C(C)C)cn(C)c(=O)c1Cl [Example 96]
(II) CC(C)c1c(-c2ccc(=O)n(C)c2)[nH]c2ccc(C3CCN(C4CCOC4)CC3)cc12 (centres unmarked) [Example 177]
I or II : whose IC50 is greater? Response format: the label of the selected entry.
II
(II: 154 nM, I: 2 nM)
